Data provenance: patent US10435399B2

Biological target: HDAC6 enzyme (Homo sapiens, UniProt Q9UBN7)
Construct: transducing full length HDAC6 gene into Sf-9 insect cells; GST; purchased SignalChem; host or cells: Sf-9 insect cells
Assay: HDAC6 enzyme inhibitory activity (HDAC-Glo I/II Assay kit)
Assay type: biochemical
Details: 10 μM; wells without enzyme = 100% inhibition; read-out: HDAC6 inhibitory rate (%) (10 μM)
ENDPOINT: inhibition at 10 µM
Please don't drop the unit; write it after the number.

# COMPOUND, ASSAYED SYSTEM, RECORDED RESULT
data = [
    ("O=C(N[C@@H]1CCCC[C@H]1N1Cc2ccc(-c3nnc(C(F)F)o3)cc2C1=O)[C@@H]1CCOC1", "HDAC6 enzyme (Homo sapiens, UniProt Q9UBN7)", "100%"),
]

Q: So what inhibition at 10 µM did Cn1ccc(-c2ccccc2N2Cc3ccc(-c4nnc(C(F)F)o4)cc3C2=O)n1 get with HDAC6 enzyme (Homo sapiens, UniProt Q9UBN7)?
Ans: 100%

Q: So what inhibition at 10 µM did O=C1c2cc(-c3nnc(C(F)F)o3)ccc2CN1c1ccccc1-c1cnn(C(F)F)c1 get with HDAC6 enzyme (Homo sapiens, UniProt Q9UBN7)?
Ans: 98%

Q: So what inhibition at 10 µM did O=C1c2cc(-c3nnc(C(F)F)o3)cnc2CN1[C@@H]1CCCC[C@H]1NCC(F)(F)F get with HDAC6 enzyme (Homo sapiens, UniProt Q9UBN7)?
Ans: 101%

Q: So what inhibition at 10 µM did O=C1c2cc(-c3nnc(C(F)F)o3)cnc2CN1[C@@H]1COCC[C@H]1Oc1ccc(F)cc1F get with HDAC6 enzyme (Homo sapiens, UniProt Q9UBN7)?
Ans: 96%

Q: So what inhibition at 10 µM did O=C1c2cc(-c3nnc(C(F)F)o3)ccc2CN1c1ccccc1-c1cccnc1 get with HDAC6 enzyme (Homo sapiens, UniProt Q9UBN7)?
Ans: 100%

----------
Biological target: HDAC6 enzyme (Homo sapiens)
Construct: transducing full length HDAC6 gene into Sf-9 insect cells; GST; purchased SignalChem; host or cells: Sf-9 insect cells
Sequence (Q9UBN7 1-1215): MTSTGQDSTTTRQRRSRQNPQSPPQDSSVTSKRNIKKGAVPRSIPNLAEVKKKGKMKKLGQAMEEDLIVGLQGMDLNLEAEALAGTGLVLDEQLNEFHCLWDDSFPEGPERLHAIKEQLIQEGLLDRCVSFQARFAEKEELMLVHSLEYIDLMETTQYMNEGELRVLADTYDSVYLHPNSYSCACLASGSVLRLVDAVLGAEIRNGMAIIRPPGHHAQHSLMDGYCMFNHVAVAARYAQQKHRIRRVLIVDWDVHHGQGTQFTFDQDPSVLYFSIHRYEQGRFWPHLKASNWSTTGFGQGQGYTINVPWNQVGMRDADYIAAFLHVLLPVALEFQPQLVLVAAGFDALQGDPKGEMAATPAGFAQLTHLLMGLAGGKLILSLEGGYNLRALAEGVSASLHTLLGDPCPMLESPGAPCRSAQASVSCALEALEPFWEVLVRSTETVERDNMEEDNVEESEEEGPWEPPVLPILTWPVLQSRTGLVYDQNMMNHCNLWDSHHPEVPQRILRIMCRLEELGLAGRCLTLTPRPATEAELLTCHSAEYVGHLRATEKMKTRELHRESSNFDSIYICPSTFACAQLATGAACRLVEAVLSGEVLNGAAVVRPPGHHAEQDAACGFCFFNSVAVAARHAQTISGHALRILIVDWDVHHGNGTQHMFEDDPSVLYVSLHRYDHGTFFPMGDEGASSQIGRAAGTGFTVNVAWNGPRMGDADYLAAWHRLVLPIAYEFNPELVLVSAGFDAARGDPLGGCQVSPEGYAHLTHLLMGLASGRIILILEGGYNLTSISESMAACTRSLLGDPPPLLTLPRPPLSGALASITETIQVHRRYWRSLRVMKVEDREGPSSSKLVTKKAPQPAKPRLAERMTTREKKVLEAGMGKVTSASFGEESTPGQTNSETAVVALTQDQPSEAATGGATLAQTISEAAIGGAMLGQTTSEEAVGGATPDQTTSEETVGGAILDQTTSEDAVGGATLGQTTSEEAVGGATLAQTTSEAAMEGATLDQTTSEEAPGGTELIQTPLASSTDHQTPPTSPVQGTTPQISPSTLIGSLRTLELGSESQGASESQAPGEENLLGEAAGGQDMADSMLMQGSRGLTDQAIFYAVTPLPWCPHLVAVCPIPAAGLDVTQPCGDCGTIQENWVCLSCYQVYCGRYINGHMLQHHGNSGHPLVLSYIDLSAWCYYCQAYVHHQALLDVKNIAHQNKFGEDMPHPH
Experiment: HDAC6 enzyme inhibitory activity (HDAC-Glo I/II Assay kit)
Format: biochemical
Conditions: 10 μM; wells without enzyme = 100% inhibition; read-out: HDAC6 inhibitory rate (%) (10 μM)
ENDPOINT: inhibition at 10 µM (%)
# output: bare number, implied unit %

The cases that follow already have their inhibition at 10 µM on record.
# MOLECULE, ASSAYED SYSTEM, inhibition at 10 µM [%]
rows = [
    ("O=C1CCCN1[C@@H]1COCC[C@H]1N1Cc2ccc(-c3nnc(C(F)F)o3)cc2C1=O [Example 1]", "HDAC6 enzyme (Homo sapiens)", 101),
    ("Cn1cc(-c2cncc(F)c2)c(N2Cc3ccc(-c4nnc(C(F)F)o4)cc3C2=O)n1 [Example 459]", "HDAC6 enzyme (Homo sapiens)", 97),
]

Q: # get_value(readout='inhibition at 10 µM', item= O=C1CCCN1[C@@H]1CCCC[C@H]1N1Cc2c(F)cc(-c3nnc(C(F)F)o3)cc2C1=O [Example 124] )
Ans: 99

Q: # get_value(readout='inhibition at 10 µM', item= CC(F)(F)C(=O)N[C@H]1COCC[C@H]1N1Cc2c(F)cc(-c3nnc(C(F)F)o3)cc2C1=O [Example 366] )
Ans: 97

Q: # get_value(readout='inhibition at 10 µM', item= O=C1c2cc(-c3nnc(C(F)F)o3)cnc2CN1[C@H]1CCCC[C@H]1n1cccn1 (racemic) [Example 541] )
Ans: 99

Q: # get_value(readout='inhibition at 10 µM', item= O=C(N[C@@H]1CCCC[C@H]1N1Cc2ncc(-c3nnc(C(F)F)o3)cc2C1=O)c1ccccn1 [Example 164] )
Ans: 99

Q: # get_value(readout='inhibition at 10 µM', item= O=C1c2cc(-c3nnc(C(F)F)o3)cnc2CN1Cc1ccccn1 [Example 362] )
Ans: 99

Q: # get_value(readout='inhibition at 10 µM', item= O=C(NCC(F)(F)C(F)(F)F)C1CC(F)(F)CCN1N1Cc2ccc(-c3nnc(C(F)F)o3)cc2C1=O (centres unmarked) [Example 622] )
Ans: 100
